Target Or System: menin/MLL (terbium chelate-labeled menin, FITC-MBM1 peptide) (Homo sapiens, UniProt O00255, T541A)
Construct: Menin (a.a 1-610-6xhis tag, 2.3 mg/mL in 20 mM Hepes)
Assay: Menin/MLL homogenous time-resolved fluorescence (HTRF) assay
Particulars: 30 min incubation
Protocol: 1) Menin/MLL Homogenous Time-Resolved Fluorescence (HTRF) Assay […] Compound potencies were determined by first calculating % inhibition at each compound concentration according to equation 1: […] Where LC and HC are the HTRF values of the assay in the presence or absence of a saturating concentration of a compound that competes with FITC-MBM1 for binding to menin, and HTRF^compound is the measured HTRF value in the presence of the test compound. […]
Labelling: IC50 reported below 80 pM becomes met; at or above becomes not met.

# count of solved cases: 4
>>> discrete_label("Cc1cncc2c1c(C[C@@H]1CCN(CC3CCN(C(=O)C(C)C)CC3)C1)cn2-c1ccc(F)cc1C(=O)N(C[C@H](C)O)C(C)C")
"not met"
>>> discrete_label("Cc1cncc2c1c(C[C@@H]1CCN(CC3(C)CCN(C(N)=O)CC3)C1)cn2-c1ccc(F)cc1C(=O)N(C)C(C)C")
"met"
>>> discrete_label("CC(=O)N1CCC(CN2CC[C@@H](Cc3cn(-c4ccc(F)cc4C(=O)N(C[C@H](C)O)C(C)C)c4cncc(C)c34)C2)CC1 (single isomer, unassigned) [Compound 320b]")
"not met"
>>> discrete_label("CN=S(=O)(c1cc(F)ccc1-n1cc(CC2CCN(CC3CCOCC3)C2)c2c(C)cncc21)C(C)C (single isomer, unassigned) [Compound 77a]")
"not met"

Field: next compound
Lookup: I wonder whether CCN(C(=O)c1cc(F)ccc1-n1cc(CC2CN(C(C(C)C)[C@H]3C[C@H](N4CCN(S(C)(=O)=O)CC4)C3)C2)c2c(C)cncc21)C(C)C (stereo partly drawn) [Compound 37b] has IC50 below 80 pM. Can you tell?
Found: not met

====

Target Or System: menin/MLL (terbium chelate-labeled menin, FITC-MBM1 peptide) (Homo sapiens, UniProt O00255, T541A)
Construct: Menin (a.a 1-610-6xhis tag, 2.3 mg/mL in 20 mM Hepes)
Sequence (O00255 with tags, fused parts or gaps T541A): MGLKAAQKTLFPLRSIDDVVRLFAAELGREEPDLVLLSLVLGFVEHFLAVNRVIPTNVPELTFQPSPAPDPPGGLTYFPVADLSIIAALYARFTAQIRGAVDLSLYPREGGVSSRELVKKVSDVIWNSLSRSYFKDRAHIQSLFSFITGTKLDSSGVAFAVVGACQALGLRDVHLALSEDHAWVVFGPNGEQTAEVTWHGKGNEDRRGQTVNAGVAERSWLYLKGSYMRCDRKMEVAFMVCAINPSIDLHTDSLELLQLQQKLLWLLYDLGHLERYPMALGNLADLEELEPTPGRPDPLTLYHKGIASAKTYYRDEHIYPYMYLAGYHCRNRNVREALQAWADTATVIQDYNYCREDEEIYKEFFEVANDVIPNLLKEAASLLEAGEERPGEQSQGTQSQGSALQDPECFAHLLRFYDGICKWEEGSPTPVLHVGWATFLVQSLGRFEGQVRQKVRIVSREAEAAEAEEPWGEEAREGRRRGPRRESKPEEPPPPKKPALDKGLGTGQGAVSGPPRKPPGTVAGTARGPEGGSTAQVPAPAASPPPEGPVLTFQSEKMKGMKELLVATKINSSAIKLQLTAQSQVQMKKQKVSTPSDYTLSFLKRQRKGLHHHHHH
Assay: Menin/MLL homogenous time-resolved fluorescence (HTRF) assay
Particulars: 30 min incubation
Procedure: 1) Menin/MLL Homogenous Time-Resolved Fluorescence (HTRF) Assay […] Compound potencies were determined by first calculating % inhibition at each compound concentration according to equation 1: […] Where LC and HC are the HTRF values of the assay in the presence or absence of a saturating concentration of a compound that competes with FITC-MBM1 for binding to menin, and HTRF^compound is the measured HTRF value in the presence of the test compound. […]
Let's look at some compounds and their measured pIC50.
Please treat pIC50 as minus the base-10 logarithm of the molar concentration.

Some entries whose results are on file:
>>> reported_measurement("CN=S(=O)(c1cc(F)ccc1-n1cc(CC2CCN(CC3CCOCC3)C2)c2c(C)cncc21)C(C)C (single isomer, unassigned) [Compound 77d]")
9.68
>>> reported_measurement("CC(=O)N1CCC(C)(CN2CC[C@@H](Cc3cn(-c4ccc(F)cc4C(=O)N(CCO)C(C)C)c4cncc(C)c34)C2)CC1")
10.04
>>> reported_measurement("CC(=O)N1C[C@@H]2CN(CCC[C@@H](C(C)C)N3CC[C@@H](Cc4cn(-c5ccc(F)cc5C(=O)N(C)C(C)C)c5cncc(Cl)c45)C3)C[C@H]2C1 (single isomer, unassigned) [Compound 18b]")
10.77
>>> reported_measurement("CC(=O)N1C[C@@H]2CN([C@H]3C[C@@H](C(C)N4CC[C@@H](Cc5cn(-c6ccc(F)cc6C(=O)N(C)C(C)C)c6cncc(C)c56)C4)C3)C[C@H]2C1 (mixture of isomers)")
10.26
>>> reported_measurement("CN=[S@@](=O)(c1cc(F)ccc1-n1cc(CC2CN(CC3CCOCC3)C2)c2c(C)cncc21)C(C)C (single isomer, unassigned) [Compound 166b]")
9.65
>>> reported_measurement("Cc1cncc2c1c(CC1CCN(C(CCC3OCCO3)C(C)C)C1)cn2-c1ccc(F)cc1C(=O)N(C)C(C)C (single isomer, unassigned)")
10.17
>>> reported_measurement("CC(=O)N1CCC(CN2CC[C@@H](Cc3cn(-c4ccc(F)cc4[S@@]4(=O)=NCCC4)c4cncc(C)c34)C2)CC1 (single isomer, unassigned) [Compound 214a]")
8.89
>>> reported_measurement("Cc1noc(CN2CC(Cc3cn(-c4ccc(F)cc4C(=O)N(C)C(C)C)c4cncc(C)c34)C2)n1")
7.22

Lookup: Endpoint output: pIC50 of Cc1cncc2c1c(CC1CCNC1C)cn2-c1ccc(F)cc1C(=O)N(C)C(C)C (centres unmarked) [Compound 507] . Value?
Found: 8.18

Lookup: Endpoint output: pIC50 of Cc1cncc2c1c(C[C@@H]1CCN([C@@H](C)C3CCOCC3)C1)cn2-c1ccc(F)cc1[S@@](=N)(=O)C(C)C (single isomer, unassigned) [Compound 182b] . Value?
Found: 8.51

Lookup: Endpoint output: pIC50 of Cc1cncc2c1c(CC1CN([C@@H]3CCN4C(=O)CCC4C3)C1)cn2-c1ccc(F)cc1C(=O)N(C)C(C)C (single isomer, unassigned) [Compound 309a] . Value?
Found: 8.89

====

Tested on: KO-52 cells
Assay: Proliferation assay (spheroid confluence, 8 days), KO-52 control cell line
Assay type: cell-based, human
Particulars: Homo sapiens, read-out: spheroid assay_KO-52 IC50
Protocol: The anti-proliferative effect of menin/MLL protein/protein interaction inhibitor test compounds was assessed in human leukemia cell lines. […] In order to assess the anti-proliferative effects, 200 MOLM14 cells, 200 OCI-AML3 cells or 300 KO-52 cells were seeded in 200 μl media per well in 96-well round bottom, ultra-low attachment plates (Costar, catalogue number 7007). […] Spheroid like growth was measured in real-time by live-cell imaging (IncuCyteZOOM, Essenbio, 4×objective) acquiring images at day 8. […]
Assay Readout: pIC50
Please treat pIC50 as minus the base-10 logarithm of the molar concentration.

Lookup: Find the measured pIC50: item Cc1cncc2c1c(C[C@@H]1CCN(C[C@@H]3CCOC3)C1)cn2-c1ccc(F)cc1C(=O)N(C)C(C)C (single isomer, unassigned) [Compound 190b] , target or system KO-52 cells.
Found: 5.31

Lookup: Find the measured pIC50: item `CC(=O)N1CCC(CCN2CC[C@@H](Cc3cn(-c4ccc(F)cc4C(=O)N(C)C(C)C)c4cncc(C)c34)C2)CC1` , target or system KO-52 cells.
Found: 4.84

Lookup: Find the measured pIC50: item CN=[S@](=O)(c1cc(F)ccc1-n1cc(C[C@@H]2CCN(CC3CCN(C(C)=O)CC3)C2)c2c(C)cncc21)C(C)C (single isomer, unassigned) [Compound 128a] , target or system KO-52 cells.
Found: 5.11

Lookup: Find the measured pIC50: item Cc1cncc2c1c(C[C@@H]1CCN(CC3CCOCC3)C1)cn2-c1ccc(F)cc1S(=N)(=O)C(C)C (mixture of isomers) , target or system KO-52 cells.
Found: 5.08

Lookup: Find the measured pIC50: item Cc1cncc2c1c(C[C@@H]1CCN([C@H](C)C3CCOCC3)C1)cn2-c1ccc(F)cc1[S@](=N)(=O)C(C)C (single isomer, unassigned) [Compound 180a] , target or system KO-52 cells.
Found: 5.14

Lookup: Find the measured pIC50: item Cc1cncc2c1c(C[C@H]1CCN(C(C)C3CCOCC3)C1)cn2-c1ccc(F)cc1C(=O)N(C)C(C)C (mixture of isomers) , target or system KO-52 cells.
Found: 5.52

Lookup: Find the measured pIC50: item CC(C)C([C@H]1C[C@@H](N(C)C)C1)N1CC(Cc2cn(-c3ccc(F)cc3C(=O)N(C)C(C)C)c3cncc(Cl)c23)C1 (stereo partly shown) , target or system KO-52 cells.
Found: 5.85
